Record form. Attribute: IC50. Fill in for each entry.
# testedOn: Sodium-dependent serotonin transporter (Homo sapiens, UniProt P31645)
# Sequence (P31645 whole entry): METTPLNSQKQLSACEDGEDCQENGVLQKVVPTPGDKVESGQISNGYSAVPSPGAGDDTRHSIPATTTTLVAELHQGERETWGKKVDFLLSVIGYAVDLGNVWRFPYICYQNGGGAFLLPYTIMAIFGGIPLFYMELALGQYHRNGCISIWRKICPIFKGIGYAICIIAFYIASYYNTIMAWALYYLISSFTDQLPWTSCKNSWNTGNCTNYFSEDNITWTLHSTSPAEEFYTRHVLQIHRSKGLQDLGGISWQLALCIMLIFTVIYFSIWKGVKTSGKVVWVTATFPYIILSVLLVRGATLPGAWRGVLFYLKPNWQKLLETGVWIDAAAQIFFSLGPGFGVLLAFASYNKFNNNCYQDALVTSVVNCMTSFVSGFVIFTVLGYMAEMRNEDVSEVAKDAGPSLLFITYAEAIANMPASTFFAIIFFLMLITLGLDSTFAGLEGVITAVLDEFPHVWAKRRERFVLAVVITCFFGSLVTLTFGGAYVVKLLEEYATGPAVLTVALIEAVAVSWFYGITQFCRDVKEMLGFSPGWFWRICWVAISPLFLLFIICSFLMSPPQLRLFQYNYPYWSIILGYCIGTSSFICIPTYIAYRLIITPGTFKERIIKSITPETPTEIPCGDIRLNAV
# testDescription: Inhibition of [3H]5HT reuptake at human serotonin transporter expressed in HEK293 cells

# example entries with known answers
CN(C)Cc1cc(S(N)(=O)=O)ccc1Oc1ccc([S+](C)[O-])cc1 (centres undefined); > 1000 nM
CNCc1cc(S(=O)(=O)N(C)CCO)ccc1Oc1ccc([S+](C)[O-])cc1 (centres undefined); > 1000 nM

Required: IC50, one value per compound below.
1. Cc1cc(Oc2ccc(S(N)(=O)=O)cc2CN(C)C)ccc1[S+](C)[O-] (centres undefined)
2. CNS(=O)(=O)c1ccc(Oc2ccc([S+](C)[O-])cc2)c(CN(C)C)c1 (centres undefined)

1. > 10000 nM
2. > 1000 nM

The values you see were collected from ChEMBL document CHEMBL1144206.
